# assay.explanation: Binding affinity of serum protein in mouse.
# Assay type: ADME, organism-based
# condition.description: read-out: %Bound_Plasma (converted)
measurement.name: fraction unbound
API note: the answer field is a bare number with no unit suffix.

Asked: Fill in the blank: the reported fraction unbound of COc1cc2c(Nc3ccc(Br)cc3F)ncnc2cc1OCCn1ccnn1 [ZD-4190 FREE BASE] is ____.
Given back: 0.02

----------
# assay.explanation: solubility was determined using free base at pH 7.4
# Type: physicochemical
# condition.description: buffer
measurement.name: solubility

compound=COc1cc2c(Nc3ccc(Br)cc3F)ncnc2cc1OCC1CCN(C)CC1.Cl measurement_name=solubility result="330 µM"

Asked: Would you kindly share the measured solubility for COc1cc2c(Nc3ccc(Br)cc3F)ncnc2cc1OCCn1ccnn1 [ZD-4190 FREE BASE] ?
Given back: 0.7 µM

----------
# target.entity: UniProt Q02763
# Sequence (Q02763 whole entry): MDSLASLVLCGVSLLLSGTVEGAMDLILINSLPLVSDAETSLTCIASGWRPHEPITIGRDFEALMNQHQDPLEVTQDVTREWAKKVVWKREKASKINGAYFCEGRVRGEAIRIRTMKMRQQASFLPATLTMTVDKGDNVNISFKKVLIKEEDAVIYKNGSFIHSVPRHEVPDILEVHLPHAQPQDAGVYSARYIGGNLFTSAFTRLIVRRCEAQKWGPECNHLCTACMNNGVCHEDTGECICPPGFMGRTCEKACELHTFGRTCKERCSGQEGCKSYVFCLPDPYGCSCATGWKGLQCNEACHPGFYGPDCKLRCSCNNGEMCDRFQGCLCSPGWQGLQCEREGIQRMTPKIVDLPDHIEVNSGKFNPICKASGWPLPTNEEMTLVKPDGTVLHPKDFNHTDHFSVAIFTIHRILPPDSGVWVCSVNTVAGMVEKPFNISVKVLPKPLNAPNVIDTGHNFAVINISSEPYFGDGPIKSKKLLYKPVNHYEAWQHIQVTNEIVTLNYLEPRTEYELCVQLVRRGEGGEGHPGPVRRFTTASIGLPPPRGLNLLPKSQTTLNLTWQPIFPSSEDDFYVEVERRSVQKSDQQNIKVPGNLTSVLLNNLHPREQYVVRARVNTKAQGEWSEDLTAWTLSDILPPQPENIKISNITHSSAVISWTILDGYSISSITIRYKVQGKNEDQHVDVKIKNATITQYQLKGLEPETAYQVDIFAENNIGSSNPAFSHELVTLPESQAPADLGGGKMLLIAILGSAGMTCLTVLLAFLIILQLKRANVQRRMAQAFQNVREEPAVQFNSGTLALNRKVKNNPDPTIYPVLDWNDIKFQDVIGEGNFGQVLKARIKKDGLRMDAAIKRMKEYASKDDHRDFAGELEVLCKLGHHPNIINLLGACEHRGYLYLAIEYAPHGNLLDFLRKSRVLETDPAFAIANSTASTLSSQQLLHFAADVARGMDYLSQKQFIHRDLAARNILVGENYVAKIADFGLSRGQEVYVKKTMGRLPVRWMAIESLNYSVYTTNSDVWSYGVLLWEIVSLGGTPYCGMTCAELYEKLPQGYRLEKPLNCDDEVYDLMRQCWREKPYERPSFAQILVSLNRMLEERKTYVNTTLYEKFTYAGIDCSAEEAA
pIC50: −log10 of the molar value.
measurement.name: pIC50

Asked: Request body: readout pIC50, system UniProt Q02763, query COc1cc2c(Nc3ccc(Br)cc3F)ncnc2cc1OCCn1ccnn1 [ZD-4190 FREE BASE] . Return the value.
Given back: < 4.00

----------
concentration at 24 h overview
# assay.explanation: Plasma levels following administration of 50 mg/Kg perorally and concentration in plasma 24 hr after administration
# Type: ADME, cell-free
# condition.description: po, read-out: Plasma level
# value in nM; strip the unit string

molecular_string=COc1cc2c(Nc3ccc(Br)cc3F)ncnc2cc1OC[C@@H]1CCCN(C)C1 number=2500
molecular_string=COc1cc2c(Nc3ccc(Cl)cc3F)ncnc2cc1OCCCN1CCN(C)CC1.Cl number=3000

Continue with the next molecule.
Asked: Reported concentration at 24 h, molecule "COc1cc2c(Nc3ccc(Br)cc3F)ncnc2cc1OCCC1CCN(C)CC1" : ____
Given back: 2000

----------
# assay.explanation: physchem
# condition.description: octanol/water, pH 7.4
measurement.name: logD
Format: numeric value only, no unit, no commentary.

compound=COc1cc2c(Nc3ccc(Br)cc3F)ncnc2cc1OCC1CCN(C)CC1.Cl measurement_name=logD number=2.6
compound="COc1cc2c(Nc3ccc(Br)cc3F)ncnc2cc1OCCn1ccnn1 [ZD-4190 FREE BASE]" measurement_name=logD number=4.6
compound=COc1cc2c(Nc3ccc(Cl)cc3F)ncnc2cc1OCCCN1CCOCC1 measurement_name=logD number=3.4

Asked: Please look up its logD: "COc1cc2c(Nc3ccc(Cl)cc3F)ncnc2cc1OCCCN1CCN(C)CC1.Cl"
Given back: 2.4

----------
# target.entity: Insulin-like growth factor 1 receptor (Homo sapiens)
# Sequence (P08069 31-736 limits assumed): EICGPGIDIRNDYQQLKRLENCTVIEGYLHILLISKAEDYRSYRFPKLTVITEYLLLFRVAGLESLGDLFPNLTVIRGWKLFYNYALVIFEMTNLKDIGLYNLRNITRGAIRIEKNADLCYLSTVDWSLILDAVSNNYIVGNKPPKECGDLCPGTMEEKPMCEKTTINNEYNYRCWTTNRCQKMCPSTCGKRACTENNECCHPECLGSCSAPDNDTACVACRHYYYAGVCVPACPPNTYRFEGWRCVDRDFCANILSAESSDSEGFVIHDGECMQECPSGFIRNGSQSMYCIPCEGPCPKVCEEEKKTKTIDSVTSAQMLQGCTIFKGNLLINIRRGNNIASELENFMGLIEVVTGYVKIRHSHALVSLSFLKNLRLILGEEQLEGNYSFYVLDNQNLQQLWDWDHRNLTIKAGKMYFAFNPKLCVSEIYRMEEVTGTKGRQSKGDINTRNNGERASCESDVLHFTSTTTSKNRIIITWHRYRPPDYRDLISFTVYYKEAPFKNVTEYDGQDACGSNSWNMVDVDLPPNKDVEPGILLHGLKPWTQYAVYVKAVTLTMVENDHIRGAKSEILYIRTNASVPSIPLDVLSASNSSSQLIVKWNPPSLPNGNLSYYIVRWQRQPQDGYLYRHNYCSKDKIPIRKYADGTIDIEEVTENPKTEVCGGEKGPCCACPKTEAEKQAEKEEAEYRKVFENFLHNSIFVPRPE
# Sequence (P08069 741-1367 limits assumed): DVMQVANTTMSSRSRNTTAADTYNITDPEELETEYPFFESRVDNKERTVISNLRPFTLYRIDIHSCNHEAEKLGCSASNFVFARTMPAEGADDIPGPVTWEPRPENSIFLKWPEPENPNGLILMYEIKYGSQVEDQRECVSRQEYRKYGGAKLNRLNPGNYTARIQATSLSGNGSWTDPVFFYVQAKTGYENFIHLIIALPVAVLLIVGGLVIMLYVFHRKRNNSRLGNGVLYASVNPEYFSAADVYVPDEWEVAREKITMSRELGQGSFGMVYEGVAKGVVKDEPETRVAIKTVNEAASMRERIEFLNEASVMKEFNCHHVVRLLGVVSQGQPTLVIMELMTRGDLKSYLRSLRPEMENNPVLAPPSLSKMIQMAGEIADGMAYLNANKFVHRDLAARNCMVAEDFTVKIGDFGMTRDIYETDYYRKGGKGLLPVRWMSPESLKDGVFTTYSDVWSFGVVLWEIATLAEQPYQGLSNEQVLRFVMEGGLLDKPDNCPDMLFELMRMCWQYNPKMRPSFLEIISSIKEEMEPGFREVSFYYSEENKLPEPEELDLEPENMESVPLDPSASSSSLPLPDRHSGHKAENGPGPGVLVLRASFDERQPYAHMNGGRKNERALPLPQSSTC
pIC50: −log10 of the molar value.
measurement.name: pIC50

Asked: I'd like to know its pIC50. The compound in question is COc1cc2c(Nc3ccc(Br)cc3F)ncnc2cc1OCCn1ccnn1 [ZD-4190 FREE BASE]
Given back: < 4.70

----------
# assay.explanation: Bioavailability in rat after oral dose at 50 mg/kg free base
# Format: ADME, organism-based
# condition.description: in vivo
measurement.name: bioavailability

Asked: Please look up its bioavailability: COc1cc2c(Nc3ccc(Br)cc3F)ncnc2cc1OCCn1ccnn1 [ZD-4190 FREE BASE]
Given back: > 80%

----------
# assay.explanation: pKa value at a pH of […].value ranges from […]-[…].
# Assay type: physicochemical
# condition.description: pH 7.4
measurement.name: pKa
Give the value as a plain number.

molecular_string=COc1cc2c(Nc3ccc(Cl)cc3F)ncnc2cc1OCCCN1CCN(C)CC1.Cl number=7.9

Next up:
Asked: Entry under review: "COc1cc2c(Nc3ccc(Br)cc3F)ncnc2cc1OCC1CCN(C)CC1.Cl" . Reported pKa?
Given back: 9.4

----------
# assay.explanation: Plasma levels following administration of 100 mg/Kg perorally and concentration in plasma 6 hr after administration
# Format: ADME, cell-free
# condition.description: po, read-out: Plasma level
Collected concentration at 6 h values appear next to each entry.
Note: unit µM is implicit; provide only the numeric part.

Example results:
molecular_string=COc1cc2c(Nc3ccc(Cl)cc3F)ncnc2cc1OCCCN1CCOCC1 number=4
molecular_string=COc1cc2c(Nc3ccc(Cl)cc3F)ncnc2cc1OCCN(C)c1ccncc1 number=4.6
molecular_string=COc1cc2c(Nc3ccc(Cl)cc3F)ncnc2cc1OCCN1CCOCC1 number=12

Continue with the next molecule.
Asked: Name the recorded concentration at 6 h for "COCCOc1cc2ncnc(Nc3ccc(Cl)cc3F)c2cc1OC" .
Given back: 12

----------
# assay.explanation: Pharmacokinetic parameter bioavailability in dog was reported after oral administration of 30 mg/Kg measured on free base
# condition.description: in vivo
measurement.name: bioavailability

Asked: Bench note: what bioavailability did COc1cc2c(Nc3ccc(Br)cc3F)ncnc2cc1OCCn1ccnn1 [ZD-4190 FREE BASE] show?
Given back: < 5%

----------
# assay.explanation: Pharmacokinetic parameter half-life in dog was reported after intravenous administration of 5 mg/Kg measured on free base
# condition.description: in vivo
measurement.name: half-life

Asked: Give the measured half-life of "COc1cc2c(Nc3ccc(Br)cc3F)ncnc2cc1OCC1CCN(C)CC1.Cl" .
Given back: 8.3 h

----------
# assay.explanation: Plasma levels following administration of 100 mg/Kg perorally and concentration in plasma 24 hr after administration
# Type: ADME, cell-free
# condition.description: po, read-out: Plasma level
measurement.name: concentration at 24 h (nM)
Could you give me the number in nM? Just the number is fine.

Example cases with answers are listed next.
molecular_string=COc1cc2c(Nc3ccc(Cl)cc3F)ncnc2cc1OCCCN1CCOCC1 measurement_name="concentration at 24 h" number=800
molecular_string=COc1cc2c(Nc3ccc(Cl)cc3F)ncnc2cc1OCCN(C)c1ccncc1 measurement_name="concentration at 24 h" number=2000

Proceeding to the next molecule to report its concentration at 24 h.
Asked: Could you tell me which concentration at 24 h is on file for "COc1cc2c(Nc3ccc(Cl)cc3F)ncnc2cc1OCCN1CCOCC1" ?
Given back: 500

----------
The next entries give measured pIC50 for Vascular endothelial growth factor receptor 1 (Homo sapiens, UniProt P17948).
Keep it numeric: pIC50 is minus log10 of the concentration in mol/L.

These solved cases illustrate the format of a correct answer.
molecular_string=COc1cc2c(Nc3ccc(Br)cc3F)ncnc2cc1OC[C@@H]1CCCN(C)C1 number=6.30
molecular_string=COc1cc2c(Nc3ccc(Cl)cc3F)ncnc2cc1OC/C=C/CN1CCCC1.Cl number=6.12
molecular_string=COc1cc2c(Nc3ccc(Cl)cc3F)ncnc2cc1OCCC1CCN(C)CC1 number=6.30
molecular_string=COc1cc2c(Nc3ccc(Br)cc3F)ncnc2cc1OC[C@H]1CCCN(C)C1 number=6.30
molecular_string=COc1cc2c(Nc3ccc(Cl)cc3F)ncnc2cc1OCCCN1CCN(C)CC1.Cl number=6.22
molecular_string=COc1cc2c(Nc3cc(O)c(C)cc3F)ncnc2cc1OCC1CCN(C)CC1.Cl number=7.60
molecular_string=COc1cc2c(Nc3ccc(Cl)cc3F)ncnc2cc1OCCN1CCN(C)CC1 number=6.52
molecular_string=COc1cc2c(Nc3ccc(Cl)cc3F)ncnc2cc1OCCCN1CCCC1.Cl number=6.70

Asked: Quick check: pIC50 on Vascular endothelial growth factor receptor 1 (Homo sapiens, UniProt P17948), item "COc1cc2c(Nc3ccc(C)cc3F)ncnc2cc1OCC1CCN(C)CC1" ?
Given back: 6.30

Asked: Quick check: pIC50 on Vascular endothelial growth factor receptor 1 (Homo sapiens, UniProt P17948), item "COc1cc2c(Nc3ccc(Br)cc3F)ncnc2cc1OCCCN1CCN(C)CC1.Cl" ?
Given back: 6.26

----------
# assay.explanation: Pharmacokinetic parameter half-life in rat was reported after intravenous administration of 5 mg/Kg measured on free base
# condition.description: in vivo
measurement.name: half-life (h)
Give just the number in h; leave the unit off.

compound="COc1cc2c(Nc3ccc(Br)cc3F)ncnc2cc1OCCn1ccnn1 [ZD-4190 FREE BASE]" number=1.3

Asked: I would be grateful if you could share the reported half-life for "COc1cc2c(Nc3ccc(Br)cc3F)ncnc2cc1OCC1CCN(C)CC1.Cl" .
Given back: 15

----------
# target.entity: Vascular endothelial growth factor receptor (Homo sapiens, UniProt P17948+P35916+P35968)
# assay.explanation: Inhibition of human endothelial cell growth stimulate by vascular endothelial growth factor
# reported log10 IC50; entries follow
Note the log scale: values are log10 of IC50 expressed in µM.

Worked cases, log10 IC50 given:
molecular_string=COc1cc2c(Nc3c(F)cc(Br)cc3F)ncnc2cc1OCC1CCNCC1 target_entity="Vascular endothelial growth factor receptor (Homo sapiens, UniProt P17948+P35916+P35968)" number=-1.15
molecular_string=COc1cc2c(Nc3ccc(C)cc3F)ncnc2cc1OCC1CCN(C)CC1 target_entity="Vascular endothelial growth factor receptor (Homo sapiens, UniProt P17948+P35916+P35968)" number=-1.19
molecular_string=COc1cc2c(Nc3ccc(Br)cc3F)ncnc2cc1OCCCN1CCN(C)CC1.Cl target_entity="Vascular endothelial growth factor receptor (Homo sapiens, UniProt P17948+P35916+P35968)" number=-1.52
molecular_string=COc1cc2c(Nc3ccc(Cl)cc3F)ncnc2cc1OC/C=C/CN1CCCC1.Cl target_entity="Vascular endothelial growth factor receptor (Homo sapiens, UniProt P17948+P35916+P35968)" number=-1.40
molecular_string=COc1cc2c(Nc3ccc(Cl)cc3F)ncnc2cc1OCCN(C)c1ccncc1 target_entity="Vascular endothelial growth factor receptor (Homo sapiens, UniProt P17948+P35916+P35968)" number=-0.70

Asked: Given the entry "COc1cc2c(Nc3ccc(Cl)cc3F)ncnc2cc1OC[C@@H]1CCCN(C)C1" , report its measured log10 IC50.
Given back: -1.10

Asked: Quick one: log10 IC50 for "COc1cc2c(Nc3ccc(Cl)cc3F)ncnc2cc1OCC1CCNCC1.Cl" ?
Given back: -1.22

Asked: Please report the recorded log10 IC50 for "COCCOc1cc2ncnc(Nc3ccc(Cl)cc3F)c2cc1OC" .
Given back: -1.40

Asked: Return reported log10 IC50; argument: "COc1cc2c(Nc3ccc(Cl)cc3F)ncnc2cc1OCCN1CCOCC1"
Given back: -0.52
